experiment: Psilocybin and psilocin plasma pharmacokinetics after s.c. psilocybin; type: in vivo, rats; conditions: rat, plasma, subcutaneous; after psilocybin 0.1 mg/kg s.c., rats, 1 h
property: concentration at 1 h

> print(dat)
                                   compound  observed.value
1  CN(C)CCc1c[nH]c2cccc(O)c12 [psilocin, 4-hydroxy-N,N-dimethyltryptamine]       5.7 ng/mL

====

assay: Psilocybin and psilocin plasma pharmacokinetics after s.c. psilocybin; assay type: in vivo, rats; conditions: rat, sc; psilocin in plasma after psilocybin 10 mg/kg s.c., rats; read-out: MRT0-inf, Mean
property: MRT inf (h)

> print(dat)
                                   molecule  property  unit.name  observed.value
1  CN(C)CCc1c[nH]c2cccc(O)c12 [psilocin, 4-hydroxy-N,N-dimethyltryptamine]   MRT inf          h            2.66

Cited source: patent US20230233584A1
